test: yeast display, Sf9 membrane polyspecificity reagent, FACS + sequencing; frameworks hold sequencing errors
quantity_name: polyreactivity (PSR sort gate)

As a guide, the following entries are already answered.
INSERT INTO assay_data (seq, obs_value) VALUES
  ('QVQLVESGGGLVHAGGSLRISCAPSGLTFLYNAMGWYRQAPGKERELVAAISQSAGSTYYADSVKGRFTISRDNAKNTVYLQMNSLKPEDTAVYYCAAEWDSPDLVIYDYWGQGTQVTVSS', 'low polyreactivity'),
  ('QVQLVESGVGLVQAGGSLRLSCAASGRIFGYYTMGWYRQAPGKERELVADSSGGNTSYADSVKGRFTISRDNAKNTVYLQMNSLKPEDTAGYYCAKDLPGAWRGDDYWGQGTQVTVSS', 'low polyreactivity'),
  ('QVQLGESGGGLVQAGGSLRLSCAASGFTFTRYAMGWYRQAPGKERELVAAIRWSGGRTYFADSVKGRFTISRDNAKNTVYLEMNRLKPEDTAVYYCNAVFYDPRREYDYWGQGTQVTVSS', 'high polyreactivity'),
  ('QVQLVESGGGLVQAGGSLRLSCAASGSIFTRYAMGWYRQAPGKERELVAAISTSGGSTYYADSVKGRFTISRDNAKNTVYLQMNSLKPEDTAVYYCAADDQRRSGYYSWGQGTQVTVSS', 'high polyreactivity');

Okay, next one:
Request: Find the recorded polyreactivity (PSR sort gate) belonging to QVQLVESGGGLVQAGGSLRLSCAASGRIFVDNTMGWYRQAPGKEREFVAVISTSGGRTSYADSVKGRFTISRDNAKNTVYLQMNSLKPEDTAVYYCNALYGRYGWSKNYYWGQGTQVTVSS and report it.
Result: high polyreactivity

Origin of values: the nanobody polyreactivity screen of Harvey et al. (2022)
